read-out: Interleukin-8 (IL8), CXCL8 (gene 3576); assay: BSK_hDFCGF_IL8: BioMAP Diversity Plus: hDFCGF Assay for Interleukin-8 (IL8) Biomarker Activity (AID 2283058); conditions: primary human foreskin fibroblasts; actives raise or lower the signal
The source made the active and inactive calls. The calls were made as follows: active = hit-call score of the fitted dose curve at least 0.9, where 1 is the maximum; inactive = score below 0.9.
Answer with one of the outcomes given here: active, inactive

Some solved cases for reference:
Compound: Oc1ccc(C(c2ccc(O)cc2)C(Cl)(Cl)Cl)cc1
Label Class: active
--
Compound: COC(=O)c1ccc(CNS(C)(=O)=O)cc1S(=O)(=O)NC(=O)Nc1nc(OC)cc(OC)n1
Label Class: inactive
--
Compound: COC(=O)c1ccccc1C(=O)O
Label Class: inactive
--
Compound: COC(=O)c1cccc(C)c1S(=O)(=O)NC(=O)Nc1nc(OCC(F)(F)F)nc(N(C)C)n1
Label Class: inactive
--
Compound: CCOC(=O)NCCOc1ccc(Oc2ccccc2)cc1
Label Class: inactive
--
Compound: S=C([S-])NCCNC(=S)[S-].[Mn+2]
Label Class: inactive
--
Compound: CC(C)CCCCCCc1ccc(O)cc1
Label Class: active
--
Compound: C[C@]12CC[C@@H]3c4ccc(O)cc4C[C@@H](CCCCCCCCCS(=O)CCCC(F)(F)C(F)(F)F)[C@H]3[C@@H]1CC[C@@H]2O (some centres undefined)
Label Class: inactive

Per the assay record, what outcome was assigned to S=C(S)NCCNC(=S)S.[Mn+2].[S-]C([S-])=NCCN=C([S-])[S-].[Zn+2] ? inactive

Per the assay record, what outcome was assigned to CCOC(=O)c1ccc(O)cc1 ? inactive

Per the assay record, what outcome was assigned to CCCOC(=O)NCCCN(C)C ? inactive

====

Read-out: Apoptosis regulator Bcl-2 (Homo sapiens)
Test: LTEA_HepaRG_BCL2: Life Technologies and Expression Analysis (LTEA) Assay for Bcl-2 gene using HepaRG (AID 2283475);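 also: BCL2 transcript by TaqMan qRT-PCR normalised to ACTB GAPDH and POLR2A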
Conditions: mRNA level, 48 h; actives raise or lower the signal
Experimental: LTEA_HepaRG is a cell based, multiplexed-readout assay that uses HepaRG, a human liver cell line, with measurements taken at 48 hours after chemical dosing on a 96-well plate.LTEA_HepaRG_BCL2 is one of 102 assay component(s) measured in the LTEA HepaRG cell culture assay. It is a marker of Cell proliferation, survival, death.Data from the assay component LTEA_HepaRG_BCL2 was analyzed into 1 endpoint. […]
Calls of active or inactive are those of the source. How the source made its calls: active means hit-call score of the fitted dose curve at least 0.9, where 1 is the maximum; inactive means score below 0.9.
Answer with one of the outcomes given here: true for active, false for inactive

Molecule: CC(C)(C)[C@@H](O)[C@@H](Cc1ccc(Cl)cc1)n1cncn1
Label Class: false
--
Molecule: CCCCOCCOCCOCc1cc2c(cc1CCC)OCO2
Label Class: false
--
Molecule: C[C@]12CC[C@@H]3c4ccc(O)cc4C[C@@H](CCCCCCCCCS(=O)CCCC(F)(F)C(F)(F)F)[C@H]3[C@@H]1CC[C@@H]2O (some centres not stated)
Label Class: true
--
Molecule: CCC(C)OC(=O)N1CCCCC1CCO (configuration not stated)
Label Class: false
--
Molecule: O=C(O)c1ccccc1
Label Class: false
--
Molecule: O=C(c1ccc(O)cc1O)c1ccc(O)cc1O
Label Class: false
--
Molecule: CCOC(=O)NCCOc1ccc(Oc2ccccc2)cc1
Label Class: true
--
Molecule: CCOC(=O)c1ccc(O)cc1
Label Class: false

Please turn your attention to the following entry.
Per the assay record, what outcome was assigned to CCOC(=O)C(C)Oc1ccc(Oc2nc3ccc(Cl)cc3o2)cc1 (configuration not stated) ? false

====

assay: CCTE_Shafer_MEA_dev_mutual_information_norm: CCTE's Neural Network Formation Assay for Mutual Information Normalization, Shafer Lab (AID 2284091)
Active and inactive are the calls of the source. How the source made its calls: active means hit-call score of the fitted dose curve at least 0.9, where 1 is the maximum; inactive means score below 0.9.
Answer with one of the outcomes given here: active, inactive

Some solved cases for reference:
Smiles Repr: CSC(=O)c1cccc2nnsc12
Label Class: inactive

Smiles Repr: O=C(O)c1ccccc1
Label Class: inactive

Smiles Repr: OB(O)O
Label Class: inactive

Smiles Repr: Cc1nn(C)c(Oc2ccccc2)c1C=NOCc1ccc(C(=O)OC(C)(C)C)cc1
Label Class: active

Per the assay record, what outcome was assigned to CCN(CC)C(=O)c1cccc(C)c1 ? inactive

Per the assay record, what outcome was assigned to S=C([S-])NCCNC(=S)[S-].[Mn+2] ? inactive

====

read-out: serum amyloid A (SAA), SAA1 (gene 6288); assay: BSK_CASM3C_SAA: BioMAP Diversity Plus: CASM3C Assay for serum amyloid A (SAA) Biomarker Activity (AID 2283049); conditions: primary human coronary artery smooth muscle cells; actives raise or lower the signal;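 also: SAA protein level quantified by ELISA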
The source made the active and inactive calls. How the source made its calls: active means hit-call score of the fitted dose curve at least 0.9, where 1 is the maximum; inactive means score below 0.9.
Answer with one of the outcomes given here: active, inactive

Compound: CCOC(=O)COc1cc(-n2ncc(C(F)(F)F)c(C)c2=O)c(F)cc1Cl
Label Class: inactive
--
Compound: O=C(c1ccccc1)C1CCCCC1
Label Class: inactive
--
Compound: C[C@]12CC[C@@H]3c4ccc(O)cc4C[C@@H](CCCCCCCCCS(=O)CCCC(F)(F)C(F)(F)F)[C@H]3[C@@H]1CC[C@@H]2O (stereo not given in full)
Label Class: inactive

Per the assay record, what outcome was assigned to N[C@@H](Cc1cc(I)c(Oc2ccc(O)c(I)c2)c(I)c1)C(=O)O ? inactive

Per the assay record, what outcome was assigned to CCOC(=O)C(C)Oc1ccc(Oc2nc3ccc(Cl)cc3o2)cc1 (stereo not given) ? inactive

====

Target: Adenosine receptor A1 (Bos taurus)
Experiment: NVS_GPCR_bAdoR_NonSelective: NovaScreen (NVS) G Protein-Coupled Receptor Assay for bovine Adenosine Receptor (AdoR), Non-selective Binding (AID 2283244)
Procedure: NVS_GPCR_bAdoR_NonSelective is a biochemical, single-readout assay that uses extracted gene-proteins from Bovine striatal membranes in a tissue-based cell-free assay. Measurements were taken 1 hour after chemical dosing in a 96-well plate.NVS_GPCR_bAdoR_NonSelective is one of one assay component(s) measured or calculated from the NVS_GPCR_bAdoR_NonSelective assay. […]
Records with an inconclusive call do not appear. Active and inactive are the calls of the source. Rule for the calls: active = hit-call score of the fitted dose curve at least 0.9, where 1 is the maximum; inconclusive = response in the unintended direction; inactive = score below 0.9.
Answer with one of the outcomes given here: active, inactive

Smiles Repr: COC(=O)c1cccc(C)c1S(=O)(=O)NC(=O)Nc1nc(OCC(F)(F)F)nc(N(C)C)n1
Assay System: Adenosine receptor A1 (Bos taurus)
Label Class: active

Per the assay record, what outcome was assigned to O=C(c1ccc(O)cc1O)c1ccc(O)cc1O ? active

Per the assay record, what outcome was assigned to CCCN(CCC)c1c([N+](=O)[O-])cc(C(F)(F)F)c(N)c1[N+](=O)[O-] ? inactive

Per the assay record, what outcome was assigned to CCNc1nc(N)nc(Cl)n1 ? inactive

Per the assay record, what outcome was assigned to N[C@@H](Cc1cc(I)c(Oc2ccc(O)c(I)c2)c(I)c1)C(=O)O ? active

====

assay: BSK_SAg_Proliferation: Cell Proliferation Assessment in the BioMAP Diversity Plus: SAg Assay (AID 2283095); conditions: primary human HUVEC with PBMC;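 also: relative cell number as total protein by SRB absorbance in sub-confluent culture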
Active and inactive are the calls of the source. The calls were made as follows: active = hit-call score of the fitted dose curve at least 0.9, where 1 is the maximum; inactive = score below 0.9.
Answer with one of the outcomes given here: 1 for active, -1 for inactive

Some solved cases for reference:
Compound: O=C(c1ccc(O)cc1O)c1ccc(O)cc1O
Label Class: 1

Compound: COC(=O)c1c(Cl)nn(C)c1S(=O)(=O)NC(=O)Nc1nc(OC)cc(OC)n1
Label Class: -1

Per the assay record, what outcome was assigned to COC(=O)c1ccccc1S(=O)(=O)NC(=O)Nc1nc(OC(F)F)cc(OC(F)F)n1 ? -1

Per the assay record, what outcome was assigned to CCOC(=O)C(C)Oc1ccc(Oc2nc3ccc(Cl)cc3o2)cc1 (stereo unspecified) ? 1

Per the assay record, what outcome was assigned to CSC(=O)c1cccc2nnsc12 ? -1

Per the assay record, what outcome was assigned to CCCOC(=O)c1ccc(C(=O)OCCC)nc1 ? -1

====

read-out: Epidermal growth factor receptor (EGFR), EGFR (gene 1956); assay: BSK_hDFCGF_EGFR: BioMAP Diversity Plus: hDFCGF Assay for Epidermal growth factor receptor (EGFR) Biomarker Activity (AID 2283057); conditions: primary human foreskin fibroblasts; actives raise or lower the signal
The source made the active and inactive calls. The calls were made as follows: active = hit-call score of the fitted dose curve at least 0.9, where 1 is the maximum; inactive = score below 0.9.
Answer with one of the outcomes given here: true (1) for active, false (0) for inactive

Per the assay record, what outcome was assigned to CCOC(=O)c1ccc(O)cc1 ? false (0)

Per the assay record, what outcome was assigned to COCCO ? false (0)

Per the assay record, what outcome was assigned to Oc1ccc(C(c2ccc(O)cc2)C(Cl)(Cl)Cl)cc1 ? true (1)

Per the assay record, what outcome was assigned to COC(=O)c1ccccc1C(=O)O ? false (0)

Per the assay record, what outcome was assigned to COC(=O)c1ccc(I)cc1S(=O)(=O)NC(=O)Nc1nc(C)nc(OC)n1 ? false (0)

Per the assay record, what outcome was assigned to CCCCOC(=O)C(C)Oc1ccc(Oc2ccc(C(F)(F)F)cn2)cc1 (stereo not given) ? false (0)

Per the assay record, what outcome was assigned to COc1nc(C)nc(NC(=O)NS(=O)(=O)c2ccccc2OCCCl)n1 ? false (0)

Per the assay record, what outcome was assigned to C[C@]12C[C@H](O)[C@H]3[C@@H](CCC4=CC(=O)CC[C@@]43C)[C@@H]1CC[C@@H]2C(=O)CO ? false (0)

Per the assay record, what outcome was assigned to c1ccc(Nc2ccccc2)cc1 ? true (1)

Per the assay record, what outcome was assigned to COC(=O)c1c(Cl)nn(C)c1S(=O)(=O)NC(=O)Nc1nc(OC)cc(OC)n1 ? false (0)

Per the assay record, what outcome was assigned to O=C(c1ccccc1)C1CCCCC1 ? false (0)

Per the assay record, what outcome was assigned to Cc1nn(C)c(Oc2ccccc2)c1C=NOCc1ccc(C(=O)OC(C)(C)C)cc1 ? true (1)

Per the assay record, what outcome was assigned to CCOC(=O)C(C)Oc1ccc(Oc2cnc3cc(Cl)ccc3n2)cc1 (stereo not given) ? false (0)

Per the assay record, what outcome was assigned to CCCCC(CC)COC(=O)c1ccccc1C(=O)O (stereo not given) ? false (0)

Per the assay record, what outcome was assigned to CCOC(=O)COc1cc(-n2ncc(C(F)(F)F)c(C)c2=O)c(F)cc1Cl ? false (0)

Per the assay record, what outcome was assigned to CC(=O)[C@H]1CC[C@H]2[C@@H]3CCC4=CC(=O)CC[C@]4(C)[C@H]3CC[C@]12C ? false (0)

Per the assay record, what outcome was assigned to COC(=O)c1ccccc1S(=O)(=O)NC(=O)Nc1nc(OC(F)F)cc(OC(F)F)n1 ? false (0)

Per the assay record, what outcome was assigned to COC(=O)c1cccc(C)c1S(=O)(=O)NC(=O)Nc1nc(OCC(F)(F)F)nc(N(C)C)n1 ? false (0)

Per the assay record, what outcome was assigned to O=C(c1ccc(O)cc1O)c1ccc(O)cc1O ? false (0)

Per the assay record, what outcome was assigned to CCCCOCCOCCOCc1cc2c(cc1CCC)OCO2 ? false (0)

Per the assay record, what outcome was assigned to CC(C)CCCCCCc1ccc(O)cc1 ? true (1)

Per the assay record, what outcome was assigned to c1ccc2[nH]c(-c3cscn3)nc2c1 ? false (0)

Per the assay record, what outcome was assigned to CCC(C)OC(=O)N1CCCCC1CCO (stereo not given) ? false (0)

Per the assay record, what outcome was assigned to S=C([S-])NCCNC(=S)[S-].[Mn+2] ? true (1)

Per the assay record, what outcome was assigned to CCNc1nc(N)nc(Cl)n1 ? false (0)
